Catalogue of compounds with associated Ki
- Experimental Target: JAK3 (Homo sapiens, UniProt P52333)
- Sequence (P52333 1-1124): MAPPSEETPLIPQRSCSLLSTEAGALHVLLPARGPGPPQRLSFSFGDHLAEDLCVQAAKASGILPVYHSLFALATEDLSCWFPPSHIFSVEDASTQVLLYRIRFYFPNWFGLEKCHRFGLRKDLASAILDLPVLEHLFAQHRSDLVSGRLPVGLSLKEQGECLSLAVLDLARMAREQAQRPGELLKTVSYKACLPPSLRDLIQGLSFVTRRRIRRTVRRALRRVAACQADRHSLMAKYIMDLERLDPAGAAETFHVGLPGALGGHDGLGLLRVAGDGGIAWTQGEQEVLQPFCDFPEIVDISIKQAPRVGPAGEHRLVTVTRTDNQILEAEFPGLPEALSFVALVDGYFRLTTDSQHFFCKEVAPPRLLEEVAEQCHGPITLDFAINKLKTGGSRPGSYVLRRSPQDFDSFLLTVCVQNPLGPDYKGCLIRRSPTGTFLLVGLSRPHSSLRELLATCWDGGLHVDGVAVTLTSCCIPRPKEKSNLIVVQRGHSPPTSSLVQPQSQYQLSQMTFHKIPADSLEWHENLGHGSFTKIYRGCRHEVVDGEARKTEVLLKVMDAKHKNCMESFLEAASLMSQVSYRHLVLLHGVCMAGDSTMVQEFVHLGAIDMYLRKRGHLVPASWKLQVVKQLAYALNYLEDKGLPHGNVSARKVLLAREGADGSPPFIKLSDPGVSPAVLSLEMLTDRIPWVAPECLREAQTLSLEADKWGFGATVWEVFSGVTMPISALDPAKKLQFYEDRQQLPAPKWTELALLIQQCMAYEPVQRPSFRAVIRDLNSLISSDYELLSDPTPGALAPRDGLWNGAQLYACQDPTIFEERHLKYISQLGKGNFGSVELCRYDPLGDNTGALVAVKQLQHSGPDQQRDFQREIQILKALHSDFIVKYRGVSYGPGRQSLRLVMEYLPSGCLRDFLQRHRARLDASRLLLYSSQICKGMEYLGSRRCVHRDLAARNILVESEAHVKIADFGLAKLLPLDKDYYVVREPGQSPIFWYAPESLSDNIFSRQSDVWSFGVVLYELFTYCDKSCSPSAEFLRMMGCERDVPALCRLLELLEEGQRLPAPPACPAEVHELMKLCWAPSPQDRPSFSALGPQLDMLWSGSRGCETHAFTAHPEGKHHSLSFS
- Protocol Description: JAK3 inhibition assay (33P incorporation into poly(Glu)4Tyr)
- Assay type: biochemical
- Condition Info: enzyme inhibition, Table 5

CC(C)(C#N)c1cccc(-c2ccnc3[nH]ccc23)n1 | < 500 nM

Ask: Requested read-out: Ki. Entry: CC(C)C(CO)NC(=O)c1ccc(-c2ccnc3[nH]ccc23)s1 (centres unmarked)
Reply: < 500 nM

Ask: State the recorded Ki for this entry: CC(=O)Nc1ccc(-c2ccnc3[nH]ccc23)cc1
Reply: < 500 nM

Ask: Need Ki of c1cc(-c2ccnc3[nH]ccc23)[nH]n1 , thanks.
Reply: < 500 nM

Ask: Given Nc1ccccc1-c1ccnc2[nH]ccc12 , state its recorded Ki.
Reply: > 5000 nM

* * *

- Experimental Target: JAK3 (Homo sapiens)
- Protocol Description: JAK3 inhibition assay (33P incorporation into poly(Glu)4Tyr)
- Format: biochemical
- Condition Info: enzyme inhibition, Table 5
- Description: Compounds were screened for their ability to inhibit JAK using the assay shown below. Reactions were carried out in a kinase buffer containing 100 mM HEPES (pH 7.4), 1 mM DTT, 10 mM MgCl2, 25 mM NaCl, and 0.01% BSA. […] To each well of a 96 well polycarbonate plate was added 1.5 μl of a candidate JAK3 inhibitor along with 50/1 of kinase buffer containing 2 μM poly(Glu)4Tyr and 10 μM ATP. […] After washing, 60 μl of scintillation fluid was added and ^33P incorporation detected on a Perkin Elmer TopCount.
pKi: −log10 of the molar value.
Catalogue of pKi values

Solved cases below.
CC(C)(Nc1nc(-c2ccnc3[nH]ccc23)ncc1F)C(=O)NCC(F)(F)F [compound 131] | > 6.30
C[C@H](Nc1cccc(-c2ccnc3[nH]ccc23)n1)C(=O)NCC(F)(F)F [compound 122] | > 6.30

Ask: Item under review: Clc1cnc2[nH]ccc2c1C1=CCCC1 [compound 28] . Reported pKi?
Reply: > 6.30
